Test: Water solubility of the modifier
Assay type: physicochemical
Parameter Measured: solubility

{"columns": ["Smiles Repr", "solubility"],
 "data": [
  ["Nc1nc(N)nc(N)n1", "≥ 3000 µg/mL"]
]}

Please indicate solubility recorded for `NC1=NC2=NC(N)=NC3=NC(N)=NC(=N1)N23`
< 3000 µg/mL

###

Test: Alcohol solubility of the modifier
Format: physicochemical
Conditions: organic solvent or mixture, alcohol (diacetone alcohol or ethanol)
solubility overview

{"columns": ["Smiles Repr", "solubility"],
 "data": [
  ["NC1=NC2=NC(N)=NC3=NC(N)=NC(=N1)N23", "< 3 mg/mL"]
]}

Now for a further compound.
Please indicate solubility recorded for `Nc1nc(N)nc(N)n1`
≥ 3 mg/mL
